- Measured On: human TYK2 (JH2domain-pseudokinase) (Homo sapiens (Human))
- Sequence (P29597 556-888): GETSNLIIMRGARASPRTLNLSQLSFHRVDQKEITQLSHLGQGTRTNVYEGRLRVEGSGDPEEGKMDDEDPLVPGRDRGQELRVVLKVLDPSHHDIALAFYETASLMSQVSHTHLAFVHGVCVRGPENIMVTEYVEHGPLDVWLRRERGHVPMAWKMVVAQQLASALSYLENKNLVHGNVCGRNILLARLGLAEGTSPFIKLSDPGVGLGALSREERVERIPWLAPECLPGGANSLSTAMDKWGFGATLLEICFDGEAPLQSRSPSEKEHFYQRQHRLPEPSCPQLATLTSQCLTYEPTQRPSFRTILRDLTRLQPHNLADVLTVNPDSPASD
- Assay Overview: TYK2 JH2 Domain Binding Assay (KINOMEscan)
Listing of entries alongside the reported Kd.

- Compound: "CNc1cc(Nc2cc(F)cnc2OCCOC)nc2c(C(=O)NC3CC3)cnn12"
  Kd: "200 to 1000 pM"
- Compound: "CNc1cc(Nc2cccn([C@H]3CC[C@@H](N4CCOCC4)CC3)c2=O)nc2c(C(N)=O)cnn12"
  Kd: "200 to 1000 pM"
- Compound: "[2H]C([2H])([2H])Oc1ncc(C)cc1Nc1cc(NC)n2ncc(C(=O)NC3CCC3)c2n1"
  Kd: "200 to 1000 pM"
- Compound: "Cc1c(Nc2cccnc2OC(C)C)nc2c(C(=O)NC3CCC3)cnn2c1N"
  Kd: "1000 to 10000 pM"
- Compound: "[2H]C([2H])([2H])Oc1ncccc1Nc1cc(NC)n2ncc(C(=O)NCC(C)(C)CO)c2n1"
  Kd: "< 200 pM"
- Compound: "CNc1cc(Nc2cccn([C@@H]3CC[C@@H]3O)c2=O)nc2c(C(=O)N[C@H]3CC[C@@H]3OC)cnn12 [I-1351]"
  Kd: "< 200 pM"
- Compound: "CNc1cc(Nc2cc(F)cn(-c3ccn(C)n3)c2=O)nc2c(C(=O)N[C@H]3C[C@H]3F)cnn12"
  Kd: "< 200 pM"
- Compound: "CNc1cc(Nc2cccn([C@@H]3CCCOC3)c2=O)nc2c(C(=O)N[C@H]3C[C@@H]3OC)cnn12 [I-1414]"
  Kd: "> 10000 pM"
- Compound: "CNc1cc(Nc2cccn(-c3ccc(F)cc3)c2=O)nc2c(C(=O)NC3CCC3)cnn12"
  Kd: "< 200 pM"
- Compound: "CNc1cc(Nc2cccc(N3CCCC3)n2)nc2c(C(=O)N[C@H]3C[C@H]3F)cnn12"
  Kd: "200 to 1000 pM"
- Compound: "CNc1cc(-c2nn(C(C)C)c3ncccc23)nc2c(C(=O)N[C@H]3C[C@H]3F)cnn12"
  Kd: "< 200 pM"

----------
// reported pKd for each item listed
- Measured On: human TYK2 (JH2domain-pseudokinase) (Homo sapiens (Human))
- Assay Overview: TYK2 JH2 Domain Binding Assay (KINOMEscan)
pKd: −log10 of the molar value.

- Compound Structure: "CNc1cc(Nc2cccn([C@H]3CCCOC3)c2=O)nc2c(C(=O)N[C@H]3[C@@H]4COC[C@@H]43)cnn12"
  pKd: "< 8.00"
- Compound Structure: "CNc1cc(Nc2cccn(C3CCOCC3)c2=O)nc2c(C(=O)N[C@@H]3CC[C@@H]3O)cnn12"
  pKd: "> 9.70"
- Compound Structure: "CNc1cc(Nc2cccn(C3CCOCC3)c2=O)nc2c(C(=O)NCC(C)(C)CO)cnn12"
  pKd: "> 9.70"
- Compound Structure: "CNc1cc(-c2cn([C@H]3CCC[C@@H]3OC)c3ncccc23)nc2c(C(=O)N[C@@H]3CC[C@@H]3O)cnn12"
  pKd: "8.00 to 9.00"
- Compound Structure: "CNc1cc(Nc2cccc(N3CCO[C@]4(CCOC4)C3)n2)nc2c(C(=O)NC3CC3)cnn12"
  pKd: "> 9.70"
- Compound Structure: "CNc1cc(Nc2cccn(-c3ccc(C(=O)N4CCCC4)cn3)c2=O)nc2c(C(=O)N[C@H]3C[C@H]3F)cnn12"
  pKd: "> 9.70"
